For each entry below, report its shrunken log2 fold change value.
- System: Escherichia coli TOP10
- TEST_SUMMARY: shrunken log2 fold change of peptide-encoding DNA abundance (4.5 h post-induction vs induction); higher = less antimicrobial activity (less host growth inhibition)
- CONDITION_CONTEXT: time post-induction: 4.5 h; library: site-saturation at positions 5, 18, 19, 20
Form rule: numeric answer, no unit written next to it.

shrunken log2 fold change for RRIRCRPPRLPRPRPRPEDFPRP is -0.198

shrunken log2 fold change for RRIRGRPPRLPRPRPRPYRQPRP is -0.401

shrunken log2 fold change for RRIRVRPPRLPRPRPRPMFKPRP is -0.24

shrunken log2 fold change for RRIRLRPPRLPRPRPRPGYAPRP is 0.119

shrunken log2 fold change for RRIRKRPPRLPRPRPRPIAVPRP is 0.131

shrunken log2 fold change for RRIRTRPPRLPRPRPRPPIFPRP is -0.245

* * *

- Test system: Escherichia coli TOP10
- TEST_SUMMARY: shrunken log2 fold change of peptide-encoding DNA abundance (4.5 h post-induction vs induction); higher = less antimicrobial activity (less host growth inhibition)
- CONDITION_CONTEXT: time post-induction: 4.5 h; library: site-saturation at positions 5, 18, 19, 20
Label T for high-side shrunken log2 fold change (at or above 0.1) and F for low-side shrunken log2 fold change (below it).

Given the entry RRIRCRPPRLPRPRPRPSDTPRP , answer whether its shrunken log2 fold change meets or surpasses 0.1. F

Given the entry RRIRGRPPRLPRPRPRPKGMPRP , answer whether its shrunken log2 fold change meets or surpasses 0.1. T

Given the entry RRIRHRPPRLPRPRPRPKECPRP , answer whether its shrunken log2 fold change meets or surpasses 0.1. F

Given the entry RRIRHRPPRLPRPRPRPCGWPRP , answer whether its shrunken log2 fold change meets or surpasses 0.1. T

Given the entry RRIRVRPPRLPRPRPRPNICPRP , answer whether its shrunken log2 fold change meets or surpasses 0.1. T

Given the entry RRIRDRPPRLPRPRPRPVPIPRP , answer whether its shrunken log2 fold change meets or surpasses 0.1. T

Given the entry RRIRNRPPRLPRPRPRPCVNPRP , answer whether its shrunken log2 fold change meets or surpasses 0.1. F

Given the entry RRIRVRPPRLPRPRPRPPRVPRP , answer whether its shrunken log2 fold change meets or surpasses 0.1. T

Given the entry RRIRWRPPRLPRPRPRPNPPPRP , answer whether its shrunken log2 fold change meets or surpasses 0.1. T

Given the entry RRIRLRPPRLPRPRPRPVPNPRP , answer whether its shrunken log2 fold change meets or surpasses 0.1. F

Given the entry RRIRVRPPRLPRPRPRPANWPRP , answer whether its shrunken log2 fold change meets or surpasses 0.1. T

Given the entry RRIRGRPPRLPRPRPRPMQDPRP , answer whether its shrunken log2 fold change meets or surpasses 0.1. T

Given the entry RRIRLRPPRLPRPRPRPQNFPRP , answer whether its shrunken log2 fold change meets or surpasses 0.1. F

Given the entry RRIRWRPPRLPRPRPRPKQRPRP , answer whether its shrunken log2 fold change meets or surpasses 0.1. T

Given the entry RRIRWRPPRLPRPRPRPLDMPRP , answer whether its shrunken log2 fold change meets or surpasses 0.1. T

Given the entry RRIRIRPPRLPRPRPRPSKAPRP , answer whether its shrunken log2 fold change meets or surpasses 0.1. F

Given the entry RRIRCRPPRLPRPRPRPAEQPRP , answer whether its shrunken log2 fold change meets or surpasses 0.1. T

Given the entry RRIRKRPPRLPRPRPRPWGTPRP , answer whether its shrunken log2 fold change meets or surpasses 0.1. T

Given the entry RRIRERPPRLPRPRPRPLFVPRP , answer whether its shrunken log2 fold change meets or surpasses 0.1. F

Given the entry RRIRARPPRLPRPRPRPVKTPRP , answer whether its shrunken log2 fold change meets or surpasses 0.1. T

Given the entry RRIRFRPPRLPRPRPRPQTRPRP , answer whether its shrunken log2 fold change meets or surpasses 0.1. T

Given the entry RRIRGRPPRLPRPRPRPRDTPRP , answer whether its shrunken log2 fold change meets or surpasses 0.1. T

Given the entry RRIRKRPPRLPRPRPRPSGFPRP , answer whether its shrunken log2 fold change meets or surpasses 0.1. T

Given the entry RRIRTRPPRLPRPRPRPVWQPRP , answer whether its shrunken log2 fold change meets or surpasses 0.1. T

Given the entry RRIRTRPPRLPRPRPRPMPPPRP , answer whether its shrunken log2 fold change meets or surpasses 0.1. F

Given the entry RRIRQRPPRLPRPRPRPKVNPRP , answer whether its shrunken log2 fold change meets or surpasses 0.1. F

Given the entry RRIRKRPPRLPRPRPRPWATPRP , answer whether its shrunken log2 fold change meets or surpasses 0.1. T

Given the entry RRIRIRPPRLPRPRPRPAKNPRP , answer whether its shrunken log2 fold change meets or surpasses 0.1. T

Given the entry RRIRIRPPRLPRPRPRPYSYPRP , answer whether its shrunken log2 fold change meets or surpasses 0.1. F

Given the entry RRIRERPPRLPRPRPRPEVVPRP , answer whether its shrunken log2 fold change meets or surpasses 0.1. T

Given the entry RRIRFRPPRLPRPRPRPMGYPRP , answer whether its shrunken log2 fold change meets or surpasses 0.1. F

Given the entry RRIRIRPPRLPRPRPRPMFGPRP , answer whether its shrunken log2 fold change meets or surpasses 0.1. F

Given the entry RRIRLRPPRLPRPRPRPIIMPRP , answer whether its shrunken log2 fold change meets or surpasses 0.1. F

Given the entry RRIRERPPRLPRPRPRPDKGPRP , answer whether its shrunken log2 fold change meets or surpasses 0.1. F

Given the entry RRIRQRPPRLPRPRPRPIQLPRP , answer whether its shrunken log2 fold change meets or surpasses 0.1. F

Given the entry RRIRSRPPRLPRPRPRPDQSPRP , answer whether its shrunken log2 fold change meets or surpasses 0.1. T

Given the entry RRIRFRPPRLPRPRPRPCPKPRP , answer whether its shrunken log2 fold change meets or surpasses 0.1. F

Given the entry RRIRFRPPRLPRPRPRPKPQPRP , answer whether its shrunken log2 fold change meets or surpasses 0.1. T

Given the entry RRIRSRPPRLPRPRPRPPLHPRP , answer whether its shrunken log2 fold change meets or surpasses 0.1. F

Given the entry RRIRERPPRLPRPRPRPACVPRP , answer whether its shrunken log2 fold change meets or surpasses 0.1. T

Given the entry RRIRTRPPRLPRPRPRPIFGPRP , answer whether its shrunken log2 fold change meets or surpasses 0.1. F

Given the entry RRIRHRPPRLPRPRPRPVRTPRP , answer whether its shrunken log2 fold change meets or surpasses 0.1. T

Given the entry RRIRERPPRLPRPRPRPRNIPRP , answer whether its shrunken log2 fold change meets or surpasses 0.1. F

Given the entry RRIRFRPPRLPRPRPRPHPLPRP , answer whether its shrunken log2 fold change meets or surpasses 0.1. F

Given the entry RRIRMRPPRLPRPRPRPISDPRP , answer whether its shrunken log2 fold change meets or surpasses 0.1. F

Given the entry RRIRSRPPRLPRPRPRPCNFPRP , answer whether its shrunken log2 fold change meets or surpasses 0.1. F

Given the entry RRIRQRPPRLPRPRPRPKGCPRP , answer whether its shrunken log2 fold change meets or surpasses 0.1. F

* * *

- Tested on: Escherichia coli TOP10
- TEST_SUMMARY: shrunken log2 fold change of peptide-encoding DNA abundance (4.5 h post-induction vs induction); higher = less antimicrobial activity (less host growth inhibition)
- CONDITION_CONTEXT: time post-induction: 4.5 h; library: site-saturation at positions 5, 18, 19, 20
For each entry below, report its shrunken log2 fold change value.
Form rule: numeric answer, no unit written next to it.

Reported Escherichia coli TOP10 shrunken log2 fold change for item RRIRPRPPRLPRPRPRPKWLPRP was 0.198

Reported Escherichia coli TOP10 shrunken log2 fold change for item RRIRGRPPRLPRPRPRPIREPRP was -0.0123

Reported Escherichia coli TOP10 shrunken log2 fold change for item RRIRYRPPRLPRPRPRPYCMPRP was -0.918

Reported Escherichia coli TOP10 shrunken log2 fold change for item RRIRVRPPRLPRPRPRPWVQPRP was -0.021

Reported Escherichia coli TOP10 shrunken log2 fold change for item RRIRPRPPRLPRPRPRPLQNPRP was -0.179

Reported Escherichia coli TOP10 shrunken log2 fold change for item RRIRKRPPRLPRPRPRPQHCPRP was -0.0588

Reported Escherichia coli TOP10 shrunken log2 fold change for item RRIRVRPPRLPRPRPRPAAAPRP was 0.69

Reported Escherichia coli TOP10 shrunken log2 fold change for item RRIRMRPPRLPRPRPRPPDHPRP was 0.456

Reported Escherichia coli TOP10 shrunken log2 fold change for item RRIRPRPPRLPRPRPRPEWVPRP was 0.332

Reported Escherichia coli TOP10 shrunken log2 fold change for item RRIRHRPPRLPRPRPRPMHTPRP was 0.0398

* * *

- System: Escherichia coli TOP10;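 further: peptides expressed intracellularly from a pBAD plasmid library in pooled LB shake-flask culture, induced with 0.3% L-arabinose, DNA abundance read by NGS, three biological replicates, DESeq2 with apeglm shrinkage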
- TEST_SUMMARY: shrunken log2 fold change of peptide-encoding DNA abundance (4.5 h post-induction vs induction); higher = less antimicrobial activity (less host growth inhibition)
- CONDITION_CONTEXT: time post-induction: 4.5 h; library: site-saturation at positions 5, 18, 19, 20
Label 1 for high-side shrunken log2 fold change (at or above -0.05) and 0 for low-side shrunken log2 fold change (below it).

Given the entry RRIRCRPPRLPRPRPRPMGKPRP , answer whether its shrunken log2 fold change meets or surpasses -0.05. 1

Given the entry RRIRNRPPRLPRPRPRPPVPPRP , answer whether its shrunken log2 fold change meets or surpasses -0.05. 1

Given the entry RRIRPRPPRLPRPRPRPMPSPRP , answer whether its shrunken log2 fold change meets or surpasses -0.05. 0

Given the entry RRIRKRPPRLPRPRPRPHAIPRP , answer whether its shrunken log2 fold change meets or surpasses -0.05. 0

Given the entry RRIRMRPPRLPRPRPRPFMRPRP , answer whether its shrunken log2 fold change meets or surpasses -0.05. 1

Given the entry RRIRQRPPRLPRPRPRPCVLPRP , answer whether its shrunken log2 fold change meets or surpasses -0.05. 0

Given the entry RRIRSRPPRLPRPRPRPLRWPRP , answer whether its shrunken log2 fold change meets or surpasses -0.05. 1

Given the entry RRIRIRPPRLPRPRPRPHAIPRP , answer whether its shrunken log2 fold change meets or surpasses -0.05. 0

Given the entry RRIRFRPPRLPRPRPRPQDWPRP , answer whether its shrunken log2 fold change meets or surpasses -0.05. 0

Given the entry RRIRARPPRLPRPRPRPHVGPRP , answer whether its shrunken log2 fold change meets or surpasses -0.05. 1

Given the entry RRIRRRPPRLPRPRPRPLTIPRP , answer whether its shrunken log2 fold change meets or surpasses -0.05. 0

Given the entry RRIRPRPPRLPRPRPRPVGNPRP , answer whether its shrunken log2 fold change meets or surpasses -0.05. 0

Given the entry RRIRYRPPRLPRPRPRPIYSPRP , answer whether its shrunken log2 fold change meets or surpasses -0.05. 0

Given the entry RRIRARPPRLPRPRPRPTPHPRP , answer whether its shrunken log2 fold change meets or surpasses -0.05. 1

Given the entry RRIRYRPPRLPRPRPRPDHSPRP , answer whether its shrunken log2 fold change meets or surpasses -0.05. 0

Given the entry RRIRVRPPRLPRPRPRPTLLPRP , answer whether its shrunken log2 fold change meets or surpasses -0.05. 0

Given the entry RRIRERPPRLPRPRPRPLELPRP , answer whether its shrunken log2 fold change meets or surpasses -0.05. 1

Given the entry RRIRERPPRLPRPRPRPQINPRP , answer whether its shrunken log2 fold change meets or surpasses -0.05. 0

Given the entry RRIRYRPPRLPRPRPRPIDNPRP , answer whether its shrunken log2 fold change meets or surpasses -0.05. 0

Given the entry RRIRYRPPRLPRPRPRPCWCPRP , answer whether its shrunken log2 fold change meets or surpasses -0.05. 1

Given the entry RRIRMRPPRLPRPRPRPSKMPRP , answer whether its shrunken log2 fold change meets or surpasses -0.05. 1

Given the entry RRIRHRPPRLPRPRPRPWYQPRP , answer whether its shrunken log2 fold change meets or surpasses -0.05. 1

Given the entry RRIRSRPPRLPRPRPRPIKPPRP , answer whether its shrunken log2 fold change meets or surpasses -0.05. 1

Given the entry RRIRARPPRLPRPRPRPLNVPRP , answer whether its shrunken log2 fold change meets or surpasses -0.05. 0

Given the entry RRIRNRPPRLPRPRPRPTFCPRP , answer whether its shrunken log2 fold change meets or surpasses -0.05. 0

Given the entry RRIRPRPPRLPRPRPRPIPCPRP , answer whether its shrunken log2 fold change meets or surpasses -0.05. 0

Given the entry RRIRARPPRLPRPRPRPTVRPRP , answer whether its shrunken log2 fold change meets or surpasses -0.05. 1

Given the entry RRIRERPPRLPRPRPRPVKRPRP , answer whether its shrunken log2 fold change meets or surpasses -0.05. 1

Given the entry RRIRWRPPRLPRPRPRPGLWPRP , answer whether its shrunken log2 fold change meets or surpasses -0.05. 1
